- experimentalSystem: human TLR9 (Homo sapiens, UniProt Q9NR96)
- Sequence (Q9NR96 26-1032): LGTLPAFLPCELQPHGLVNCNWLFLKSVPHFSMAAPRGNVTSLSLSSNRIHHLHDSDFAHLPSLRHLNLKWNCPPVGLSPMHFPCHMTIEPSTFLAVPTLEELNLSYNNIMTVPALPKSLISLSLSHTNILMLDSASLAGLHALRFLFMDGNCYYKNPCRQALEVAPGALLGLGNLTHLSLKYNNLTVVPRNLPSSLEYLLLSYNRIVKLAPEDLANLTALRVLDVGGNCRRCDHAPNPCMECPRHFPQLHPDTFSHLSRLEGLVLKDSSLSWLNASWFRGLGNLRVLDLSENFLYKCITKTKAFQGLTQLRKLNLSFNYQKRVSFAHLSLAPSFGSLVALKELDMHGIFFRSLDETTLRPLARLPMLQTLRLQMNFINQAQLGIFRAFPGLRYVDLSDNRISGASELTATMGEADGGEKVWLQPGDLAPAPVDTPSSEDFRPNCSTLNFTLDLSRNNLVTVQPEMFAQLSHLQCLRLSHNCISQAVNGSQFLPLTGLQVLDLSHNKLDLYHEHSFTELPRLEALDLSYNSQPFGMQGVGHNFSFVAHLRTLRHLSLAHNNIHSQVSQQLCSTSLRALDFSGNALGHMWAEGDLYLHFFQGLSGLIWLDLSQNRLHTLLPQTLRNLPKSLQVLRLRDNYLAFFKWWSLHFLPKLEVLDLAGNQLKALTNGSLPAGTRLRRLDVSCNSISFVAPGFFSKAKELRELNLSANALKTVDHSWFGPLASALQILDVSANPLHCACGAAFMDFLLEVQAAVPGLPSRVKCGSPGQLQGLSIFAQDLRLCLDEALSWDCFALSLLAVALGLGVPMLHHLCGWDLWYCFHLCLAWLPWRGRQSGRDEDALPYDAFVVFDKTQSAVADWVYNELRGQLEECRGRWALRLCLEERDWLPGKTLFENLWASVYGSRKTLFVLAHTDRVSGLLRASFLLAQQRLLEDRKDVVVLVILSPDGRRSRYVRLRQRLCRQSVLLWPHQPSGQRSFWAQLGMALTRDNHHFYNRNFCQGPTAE
- runDescription: TLR9 inhibition reporter assay (HEK-Blue cells, SEAP reporter)
- runConditions: HEK-Blue cells overexpressing human TLR9; stimulated with ODN2006 5 nM; 22 hour incubation; SEAP readout
In this section we review reported IC50 values for a set of molecules.
attributeMeasured: IC50 (µM)

COc1ccc(-c2cn3cc(C4CCN(C5CCN(C6CC6)CC5)CC4)cc(C)c3n2)cc1F [Example 4] = 0.146
Cc1cc(C2CCN(C3CC4CCC(C3)N4CC(C)C)CC2)cn2cc(-c3ccc(S(C)(=O)=O)cc3)nc12 (single isomer, unassigned) [Example 86] = 0.102
COc1ccc(-c2cn3c(n2)CC[C@@H](C2CCN(C4CC5CCC(C4)N5CC(C)C)CC2)C3)cc1OC (single isomer, unassigned) [Example 77] = 0.064
CC(C)CN1CCC(N2CCC(c3cc(F)c4nc(-c5ccc(S(C)(=O)=O)cc5)cn4c3)CC2)CC1 [Example 107] = 0.1
CC(C)CN1C2CCC1CC(N1CCC(c3cc(F)c4nc(-c5ccc(S(C)(=O)=O)cc5)cn4c3)CC1)C2 (single isomer, unassigned) [Example 114] = 0.066

All figures here come from patent US12486267B2.
